tested on: HIV-1 reverse transcriptase mutant K103N; experiment: High throughput cytopathic effect assay in MT-4 cells, HIV-1 RT mutant K103N; assay type: cell-based; settings: Human immunodeficiency virus 1, MT4, read-out: MT4 EC50 (nM) against K103N
assay.readout: EC50 (nM)

[[record]]
molecule = "Cc1cc(/C=C/C#N)cc(C)c1-c1cccc2c(N)nc(Nc3ccc(C#N)nn3)cc12"
tgt = "HIV-1 reverse transcriptase mutant K103N"
measurement_unit = "nM"
result_value = 36.4

[[record]]
molecule = "Cc1cc(/C=C/C#N)cc(C)c1-c1cccc2c(N)nc(Nc3ncc(C#N)cn3)cc12"
tgt = "HIV-1 reverse transcriptase mutant K103N"
measurement_unit = "nM"
result_value = 6.4

[[record]]
molecule = "O=C1Nc2ccc(Cl)cc2[C@@](C#CC2CC2)(C(F)(F)F)O1 [Efavirenz, efavirenz, reference compound]"
tgt = "HIV-1 reverse transcriptase mutant K103N"
measurement_unit = "nM"
result_value = 46.4

[[record]]
molecule = "Cc1cc(/C=C/C#N)cc(C)c1Nc1ccnc(Nc2ccc(C#N)cc2)n1 [Rilpivirine, rilpivirine, reference compound]"
tgt = "HIV-1 reverse transcriptase mutant K103N"
measurement_unit = "nM"
result_value = 1.5

